Test: P-glycoprotein substrates identified in KB-8-5-11 adenocarcinoma cell line, qHTS therapeutic library screen (AID 1346987); also: nearly all actives have a fitted effect of over 65% in size; as to activity change, negative = cytotoxicity: % is scaled to controls: 0 for no effect and ±100 for the full control effect
Details: KB-8-5-11 (P-gp overexpressing) viability, CellTiter-Glo, 72 h; series mostly up to 44.5 µM
Protocol: The ATP-binding cassette transporters P-glycoprotein (P-gp) is known to limit brain penetration of many chemotherapy drugs. […] All cell lines were plated into 1536-well plates at 500 cells/well in 5 uL media. […] CellTiter-Glo reagent (Promega) was dispensed into the wells, incubated for 5 min and luminescence was read on a ViewLux instrument (Perkin-Elmer). […]
Records with an inconclusive call do not appear. The source made the active and inactive calls. Calls follow the shape of the dose curve; as a rule, active = well fitted inhibition curve with a large enough effect; inconclusive = small, poorly fitted or top-dose-only effect; inactive = flat fitted curve, though single readings scatter. Where a SMILES comes first, the peptide text is derived from it. The star is where a group is joined. βNA = c1ccc2cc(N*)ccc2c1; Cbz = O=C(OCc1ccccc1)*
Outcome measure: activity change, negative = cytotoxicity

Compound: CC(C)CC(NC(=O)OCc1ccccc1)C(=O)NC(CC(C)C)C(=O)NC(CCC(=O)O)C(=O)Nc1ccc2ccccc2c1 (stereo not drawn) (Cbz-Leu-Leu-Glu-βNA; configuration not given here)
Outcome measure: activity change, negative = cytotoxicity
Observed: inactive
//
Compound: C=C[C@H]1[C@H](O[C@@H]2O[C@H](CO)[C@@H](O)[C@H](O)[C@H]2O)OC=C2C(=O)N3Cc4c([nH]c5ccccc5c4=O)[C@@H]3C[C@H]21
Outcome measure: activity change, negative = cytotoxicity
Observed: inactive
//
Compound: CC1(C(=O)O)CCCC2(C)C3CCC4CC3(CCC12)CC4C(=O)O (stereo not drawn)
Outcome measure: activity change, negative = cytotoxicity
Observed: inactive

----------
Tested on: Es-2
Assay: Primary qHTS to identify gynecologic anti-cancer compounds using libraries of approved drugs and bioactive compounds (AID 1345084); also: % is scaled to controls: 0 for no effect and ±100 for the full control effect; nearly all actives have a fitted effect of over 55% in size
Conditions: Gynecologic cancer cell panel viability, ATPlite luminescence, 48 h; series mostly up to 57.5 µM
Records with an inconclusive call do not appear. Active and inactive are the calls of the source. Calls follow the shape of the dose curve; as a rule, active = well fitted cell-killing curve with a large enough effect; inconclusive = small, poorly fitted or top-dose-only effect, or effect the other way; inactive = flat fitted curve, though single readings scatter. Where a SMILES comes first, the peptide text is derived from it. The star is where a group is joined. βNA = c1ccc2cc(N*)ccc2c1; Cbz = O=C(OCc1ccccc1)*

Molecule: CC1(C)C2CC[C@@]34CC(CC[C@H]3[C@]2(C)CC[C@@H]1O[C@@H]1O[C@H](CO)[C@@H](O)[C@H](O)[C@H]1O)[C@](C)(O)C4 (stereo partly specified)
activity change, negative = cytotoxicity: inactive
--
Molecule: CC(=O)OC(C)C(C)(O)C(=O)O[C@@H]1CC[C@]2(C)CC(=O)C(=C(C)C)C[C@H]2[C@]1(C)OC(C)=O (stereo partly specified)
activity change, negative = cytotoxicity: inactive
--
Molecule: CC/C=C\CC1C(CC(=O)O)CCC1OC1OC(CO)C(O)C(O)C1O (stereo unspecified)
activity change, negative = cytotoxicity: inactive
--
Molecule: CC(=O)OCC1=CCC2C(C)(C)CCCC2(C)C12CCC(C)(CC(=O)O)O2 (stereo unspecified)
activity change, negative = cytotoxicity: inactive
--
Molecule: C[C@@H]1O[C@@H](O[C@H]2[C@H](OC(=O)[C@]34CCC(C)(C)C[C@H]3C3=CCC5[C@@]6(C)CC[C@H](O[C@@H]7O[C@H](CO[C@@H]8OC[C@H](O)[C@H](O)[C@H]8O[C@@H]8OC[C@@H](O)[C@H](O)[C@H]8O)[C@@H](O)[C@H](O)[C@H]7O)C(C)(C)C6CC[C@@]5(C)[C@]3(C)C[C@H]4O)O[C@H](CO)[C@@H](O)[C@@H]2O)[C@H](O[C@@H]2O[C@H](CO)[C@@H](O)[C@H](O)[C@H]2O)[C@H](O)[C@H]1O[C@@H]1OC[C@@H](O)[C@H](O[C@@H]2OC[C@@H](O)[C@H](O)[C@H]2O)[C@H]1O (stereo partly specified)
activity change, negative = cytotoxicity: -1.37% [at 6.55 µM] (inactive)
--
Molecule: COc1cc(/C=C/C(=O)O[C@H]2C[C@@H]3C(C(=O)O)=CO[C@@H](O[C@@H]4O[C@H](CO)[C@@H](O)[C@H](O)[C@H]4O)[C@@H]3[C@H]2C)ccc1O
activity change, negative = cytotoxicity: inactive
--
Molecule: CC1=C2CC(C)(C)CC2C(O)C2=C(C1)C(=O)OC2O (stereo unspecified)
activity change, negative = cytotoxicity: inactive
--
Molecule: CC(C)CC(NC(=O)OCc1ccccc1)C(=O)NC(CC(C)C)C(=O)NC(CCC(=O)O)C(=O)Nc1ccc2ccccc2c1 (stereo not drawn) (Cbz-Leu-Leu-Glu-βNA; configuration not given here)
activity change, negative = cytotoxicity: inactive
--
Molecule: CC(=C\C(C)O)/C=C(\C)C(=O)CC1CC(CC(N)=O)CC(=O)O1 (stereo unspecified)
activity change, negative = cytotoxicity: inactive
--
Molecule: NC(=O)[C@@H]1CC[C@H](c2ccc(OCc3ccccc3F)cc2)N1
activity change, negative = cytotoxicity: inactive
--
Molecule: CC1(C)CC[C@]2(C(=O)O)CC[C@]3(C)C(=CCC4[C@@]5(C)CC[C@H](O[C@@H]6O[C@H](C(=O)O)[C@@H](O)[C@H](O[C@@H]7O[C@H](CO)[C@H](O)[C@H](O)[C@H]7O)[C@H]6O[C@@H]6O[C@H](CO)[C@@H](O)[C@H](O)[C@H]6O)C(C)(C)C5CC[C@]43C)[C@@H]2C1 (stereo partly specified)
activity change, negative = cytotoxicity: -0.476% [at 6.55 µM] (inactive)
